Hello, the source for this data is PubChem BioAssay AID2124, in case you need it.

Experiment: cell-permeable autofluorescent compounds in GFP channel, dose response, artefact control, imaging, high-content imaging (AID 2124);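 for cell count: cells exposed to compound for 48 hours before fixing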
Recorded Conditions: cells, GFP-channel autofluorescence, high-content imaging; cell count; at 10 µM
Inconclusive results are not listed.
Experimental Endpoint: cell count (cells)
Write the answer as a number in cells, unit excluded.

Reference set, count: 3
>>> experimental_result("CCc1ccccc1N1C(=O)/C(=C/c2ccc(N3CCN(C)CC3)o2)C(=O)NC1=S")
2580
>>> experimental_result("CN1C(=O)C(=Cc2ccc(N3CCCCC3)o2)C(=O)N(C)C1=S")
2940
>>> experimental_result("C=CCC(c1ccccc1)N(C(C)=O)c1ccco1 (stereo unspecified)")
3430

stdin: Which measured cell count value corresponds to COc1cc2c(cc1NC(=O)CN1CCN(S(=O)(=O)c3ccccc3F)CC1)oc1ccccc12 ?
stdout: 3180

stdin: Which measured cell count value corresponds to CC1=Nc2ccccc2/C1=C/c1sc(=S)n(-c2cccc(C(=O)O)c2)c1O ?
stdout: 3380

stdin: Which measured cell count value corresponds to CCc1c(C(=O)NC2CCCCC2)[nH]c(C)c1C(C)=O ?
stdout: 3040

stdin: Which measured cell count value corresponds to CNC(=S)NNC(=O)c1oc2nc(-c3ccccc3)cc(-c3ccco3)c2c1N ?
stdout: 2940

stdin: Which measured cell count value corresponds to Fc1ccc(C2CC(c3ccco3)=NN2c2ccccc2)cc1 (stereo unspecified) ?
stdout: 2910

stdin: Which measured cell count value corresponds to O=c1[nH]c(/C=C/c2ccccc2OC(F)F)nc2c1cnn2-c1ccccc1 ?
stdout: 2240

----------
Experiment: cell-permeable autofluorescent compounds in GFP channel, dose response, artefact control, imaging, high-content imaging (AID 2124);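 for cell count: cells exposed to compound for 48 hours before fixing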
Recorded Conditions: cells, GFP-channel autofluorescence, high-content imaging; cell count; at 10 µM
Records with an inconclusive call do not appear.
Response field label takes Yes when cell count is strictly below 2000 cells and No in all other cases.

Consider the following illustrative entries.
>>> answer_label("CCN1CC=C2C(C#N)=C(N)C(C#N)(C#N)C(c3cc(Cl)ccc3Cl)C2C1 (stereo not given)")
"No"
>>> answer_label("N#C/C(=C\\c1ccc(N2CCOCC2)o1)c1ccccc1")
"No"
>>> answer_label("CCOC(=O)CN1CC23C=CC(O2)C(C(=O)Nc2cc(OC)ccc2OC)C3C1=O (stereo not given)")
"No"
>>> answer_label("O=C1/C(=N\\S(=O)(=O)c2cccs2)C([n+]2cccc(Cc3ccccc3)c2)=C([O-])c2ccccc21")
"Yes"

Here is another compound to look at.
stdin: Just wondering, is cell count of O=C(NCc1ccc(F)cc1)C1CCCN(S(=O)(=O)c2cccnc2)C1 (stereo not given) below 2000 cells?
stdout: No

----------
Measured cell count, listed per entry for reference.
Experiment: cell-permeable autofluorescent compounds in GFP channel, dose response, artefact control, imaging, high-content imaging (AID 2124);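 for cell count: cells exposed to compound for 48 hours before fixing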
Recorded Conditions: cells, GFP-channel autofluorescence, high-content imaging; cell count; at 10 µM
Inconclusive results are not listed.
Write the answer as a number in cells, unit excluded.

>>> experimental_result("O=C(O)c1cc(-c2ccc(/C=C3/SC(=S)N(Cc4ccccc4)C3=O)o2)ccc1Cl")
2840
>>> experimental_result("O=C(COc1ccccc1)N1CCN=C1c1ccccc1")
3190
>>> experimental_result("CCCN1C(=O)/C(=C/c2c(NCCCOC(C)C)nc3c(C)cccn3c2=O)SC1=S")
2790
>>> experimental_result("COC(=O)c1[nH]c2cccc(Cl)c2c1NC(=O)CN(C)C1CCCCC1")
3280
>>> experimental_result("CCOC(=O)c1sc(NC(=O)c2sccc2C)cc1C")
3300
>>> experimental_result("CN1CCS/C1=C/C=C1/SC(=S)N(Cc2ccccc2)C1=O")
2970
>>> experimental_result("CC(=O)C1=C(C)Nc2ncnn2C1c1ccc(Cl)cc1Cl (centres undefined)")
3270
>>> experimental_result("CN(C)C(=O)CN(c1ccc2c(c1)OCO2)S(C)(=O)=O")
2880
>>> experimental_result("COc1cccc(N2CCN(c3ncccn3)CC2)c1")
3230
>>> experimental_result("O=c1oc2c3c4c(cc2c(C(F)(F)F)c1CCN1CCOCC1)CCCN4CCC3")
3400

Proceeding to the next compound to report its cell count.
stdin: Which measured cell count value corresponds to O=C1S/C(=C\c2ccc(N3CCOCC3)o2)C(=O)N1Cc1ccc(F)cc1 ?
stdout: 665

----------
Tested on: cells, GFP-channel autofluorescence, high-content imaging
Experiment: cell-permeable autofluorescent compounds in GFP channel, dose response, artefact control, imaging, high-content imaging (AID 2124)
Records with an inconclusive call do not appear. Activity calls are given as the source filed them. How the calls were made is not given here; tested in MIN6 cells.
Lab note: assign the record to one of y (active), n (inactive)

Consider the following illustrative entries.
>>> answer_label("Cc1cc(N2CCCC2)ccc1/C=C1/C(=O)N(C)C(=S)N1C")
"y"
>>> answer_label("O=[N+]([O-])c1ccc(N/N=C/c2ccc[nH]2)cc1")
"y"

stdin: Dear colleague, could you share the recorded outcome for CNC(=O)c1c(NC(=O)c2ccc(S(=O)(=O)N3CCCc4ccccc43)cc2)sc2c1CCN(C)C2 when you have a moment?
stdout: y

stdin: Dear colleague, could you share the recorded outcome for Cc1c(-c2ccc(O)cc2)nc2nc(-c3ccccc3)c(-c3ccccc3)nn12 when you have a moment?
stdout: n

----------
System: cells, GFP-channel autofluorescence, high-content imaging
Experiment: cell-permeable autofluorescent compounds in GFP channel, dose response, artefact control, imaging, high-content imaging (AID 2124)
Records with an inconclusive call do not appear. The source made the active and inactive calls. No rule for the calls is given here; tested in MIN6 cells.
Experimental Endpoint: EC50

>>> experimental_result("CC(C)NC(=O)/C(C#N)=C/c1ccc(N(C)C)o1")
"14.3 µM (inactive)"

stdin: Which measured EC50 value corresponds to O=C(OCCN1C(=O)c2cccc3c(N4CCOCC4)ccc(c23)C1=O)c1ccc(Cl)cc1Cl ?
stdout: 6.84 µM

stdin: Which measured EC50 value corresponds to CN1CC=C2C(C#N)=C(N)C(C#N)(C#N)C(Cc3ccccc3)C2C1 (stereo not given) ?
stdout: 13.7 µM (inactive)

stdin: Which measured EC50 value corresponds to CN1/C(=C\C=C(/C#N)C(=O)Nc2ccccc2F)C(C)(C)c2ccccc21 ?
stdout: 6.93 µM

stdin: Which measured EC50 value corresponds to COc1ccc(/C=C2\C(=O)NC(=S)N2C(=O)c2ccc(F)cc2)cc1 ?
stdout: > 16 µM (inactive)

----------
Experiment: cell-permeable autofluorescent compounds in GFP channel, dose response, artefact control, imaging, high-content imaging (AID 2124);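 for cell count: cells exposed to compound for 48 hours before fixing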
Recorded Conditions: cells, GFP-channel autofluorescence, high-content imaging; cell count; at 10 µM
Records with an inconclusive call do not appear.
Measured cell count, listed per entry for reference.
Write the answer as a number in cells, unit excluded.

Reference set, count: 5
>>> experimental_result("COc1ccc(C(=O)Nn2cnnc2)cc1OC")
2930
>>> experimental_result("CCN(CC)c1ccc(/C=C(/C#N)c2nc3ccc(C)cc3[nH]2)c(OC(C)C)c1")
1480
>>> experimental_result("COc1cc2c3nnc(-c4ccc(F)cc4)c-3cn(Cc3ccc(F)cc3)c2cc1OC")
274
>>> experimental_result("CCN1C(=O)CSc2ccc(C(=O)NCc3ccccc3OC)cc21")
2980
>>> experimental_result("Cc1cc(/C=C2\\SC(=S)NC2=O)c(C)n1C1CC1")
3040

stdin: Which measured cell count value corresponds to COc1cc2cc(C)c3nnc(SCC(=O)Nc4cc(C)on4)n3c2cc1OC ?
stdout: 2840

----------
Measured cell count, listed per entry for reference.
Experiment: cell-permeable autofluorescent compounds in GFP channel, dose response, artefact control, imaging, high-content imaging (AID 2124);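 for cell count: cells exposed to compound for 48 hours before fixing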
Recorded Conditions: cells, GFP-channel autofluorescence, high-content imaging; cell count; at 10 µM
Records with an inconclusive call do not appear.
Write the answer as a number in cells, unit excluded.

stdin: Which measured cell count value corresponds to CCCCCCc1cc2cc(-c3nnc(-c4ccccc4OC)o3)c(=O)oc2cc1O ?
stdout: 2630

----------
Tested on: cells, GFP-channel autofluorescence, high-content imaging
Experiment: cell-permeable autofluorescent compounds in GFP channel, dose response, artefact control, imaging, high-content imaging (AID 2124)
Results filed as inconclusive are left out. Active and inactive are the calls of the source. No rule for the calls is given here; tested in MIN6 cells.
Lab note: assign the record to one of active, inactive

>>> answer_label("CCCN1C(=O)/C(=C/C=C2\\N(CC)c3ccccc3C2(C)C)SC1=S")
"active"
>>> answer_label("Nc1ccc2c(c1)Cc1cc([N+](=O)[O-])ccc1-2")
"active"
>>> answer_label("CC(C)N1CC=C2C(C#N)=C(N)C(C#N)(C#N)[C@H](c3ccoc3)[C@H]2C1")
"active"
>>> answer_label("CCCCOc1ccc(-c2cc(C(F)(F)F)c(C#N)c(SCC(=O)O)n2)cc1")
"inactive"

stdin: Dear colleague, could you share the recorded outcome for CCOC(=O)Cc1csc(NC(=O)c2sc3nc4c(C)cc(C)cc4cc3c2N)n1 when you have a moment?
stdout: inactive

stdin: Dear colleague, could you share the recorded outcome for N#C/C(=C/c1ccc(N2CCOCC2)o1)c1ccc(Cl)cc1 when you have a moment?
stdout: active

stdin: Dear colleague, could you share the recorded outcome for COc1ccc(CN2C(=O)/C(=C/c3ccc(-c4ccc(Cl)c(C(=O)O)c4)o3)SC2=S)cc1 when you have a moment?
stdout: inactive

stdin: Dear colleague, could you share the recorded outcome for O=C1S/C(=C\c2ccc(N3CCOCC3)o2)C(=O)N1c1ccccc1 when you have a moment?
stdout: inactive

stdin: Dear colleague, could you share the recorded outcome for CC(=O)n1c(C=Nc2ccccc2)c(O)c2ccccc21 when you have a moment?
stdout: active
